test system: Mtb strain H37Rv ATCC 27294; assay: Microplate Alamar Blue Assay (MABA), susceptible strain; type: cell-based; conditions: Mycobacterium tuberculosis, Mtb H37Rv, strain sensitive to all first- and second-line drugs; MABA; triplicate; read-out: MIC
Can you tell me MIC for the items I'm about to list?

Q) Identify MIC associated with the molecule CC1=C(C(c2ccc(C)cc2)n2cc(CSc3ccccc3)nn2)C(=O)c2ccccc2C1=O (centres unmarked) [Compound 10h]
A) > 100 µg/mL

Q) Answer with the recorded MIC for the molecule listed here: CC1=C(Cn2cc(C[Se]c3ccccc3)nn2)C(=O)c2ccccc2C1=O
A) 6.23 µg/mL

Q) Note down MIC recorded for CC1=C(Cn2cc(C[Se]c3ccc(Cl)cc3)nn2)C(=O)c2ccccc2C1=O
A) 3.2 µg/mL

Q) Name the recorded MIC of the item CC1=C(Cn2cc(CSc3ccccc3C)nn2)C(=O)c2ccccc2C1=O [Compound 10d] in your answer.
A) > 100 µg/mL

Q) Give the value of MIC reported for the following: CC1=C(Cn2cc(CSc3ccc(C)cc3)nn2)C(=O)c2ccccc2C1=O [Compound 10c]
A) > 100 µg/mL

Q) Indicate the recorded MIC value for this molecule: CC1=C(C(c2ccc(C)cc2)n2cc(C[Se]c3ccccc3)nn2)C(=O)c2ccccc2C1=O (centres unmarked)
A) 24.9 µg/mL

Q) Provide MIC value for the following molecule: CC1=C(C(c2ccccc2)n2cc(CSc3ccccc3)nn2)C(=O)c2ccccc2C1=O (centres unmarked) [Compound 10g]
A) > 100 µg/mL

Q) Annotate the molecule CC1=C(Cn2cc(C[Se]c3cccc(C(F)(F)F)c3)nn2)C(=O)c2ccccc2C1=O with its measured MIC.
A) ≤ 49.9 µg/mL
